- Condition: pH 2.7
Marks after values point to notes of the source that are not given here.
Below, each entry is listed alongside its reported Log P.
Parameter: Log P

{"Compound": "CCOC(=O)C(C(=O)N1CCC(c2nc(C3=NOC(c4ccccc4C=O)C3)cs2)CC1)n1nc(C(F)F)cc1C(F)F (centres unmarked)", "Readout Value": "3.40^[a]"}
{"Compound": "C#CCOc1cccc(Cl)c1C1CC(c2csc(C3CCN(C(=O)CC(=O)OC(C)(C)C)CC3)n2)=NO1 (centres unmarked)", "Readout Value": "3.36^[a]"}
{"Compound": "CC(C)OC(=O)CC(=O)N1CCC(c2nc(C3=NOC(c4ccccc4C=O)C3)cs2)CC1 (centres unmarked)", "Readout Value": "2.57^[a]"}
{"Compound": "CCOC(=O)C(C(=O)N1CCC(c2nc(C3=NOC(c4ccccc4OS(C)(=O)=O)C3)cs2)CC1)n1nc(C(F)(F)F)cc1C (centres unmarked)", "Readout Value": "3.42^[a]"}
{"Compound": "C#CCOc1cccc(Cl)c1C1CC(c2csc(C3CCN(C(=O)CC(=O)OCC)CC3)n2)=NO1 (centres unmarked)", "Readout Value": "2.81^[a]"}
{"Compound": "COCCOC(=O)C(C(=O)N1CCC(c2nc(C3=NOC(c4ccccc4OS(C)(=O)=O)C3)cs2)CC1)n1nc(C(F)F)cc1C(F)F (centres unmarked)", "Readout Value": "3.14^[a]"}
{"Compound": "C#CCOc1cccc(F)c1C1CC(c2csc(C3CCN(C(=O)C(Br)C(=O)OC(CC)CCCCC)CC3)n2)=NO1 (centres unmarked)", "Readout Value": "4.89^[a]"}
{"Compound": "CC(C)(C)OC(=O)C(Br)C(=O)N1CCC(c2nc(C3=NOC(c4c(Cl)cccc4OS(C)(=O)=O)C3)cs2)CC1 (centres unmarked)", "Readout Value": "3.50^[a]"}
